The reported measurements were obtained from BigSolDB 2.1.

Below, each entry is listed with its recorded solubility (mole fraction).
details: in n-propanol, 283.15 K
Answer with a number only.

In [3]: df
Out[3]:
    chemical_structure           measured_endpoint  test_result
0  Cc1ccccc1S(N)(=O)=O  solubility (mole fraction)       0.0226

Entry under review: Cc1ccc(S(N)(=O)=O)cc1 . Reported solubility (mole fraction)?
0.0272

* * *

Each item that follows carries a reported solubility (mole fraction).
conditions: in ethanol, 298.15 K
Just the number, please.

    chemical_structure           measured_endpoint  test_result
0  Cc1ccccc1S(N)(=O)=O  solubility (mole fraction)       0.0321

Attention now turns to another entry.
What does the record list as solubility (mole fraction) for Cc1ccc(S(N)(=O)=O)cc1 ?
0.0524

* * *

settings: in acetonitrile, 288.15 K
measured_endpoint: solubility (mole fraction)
Give the value as a plain number.

In [3]: df
Out[3]:
      chemical_structure           measured_endpoint  test_result
0  Cc1ccc(S(N)(=O)=O)cc1  solubility (mole fraction)       0.0848

What value of measured solubility (mole fraction) is listed for Cc1ccccc1S(N)(=O)=O ?
0.0375

* * *

Documented solubility (mole fraction) across a set of molecules
conditions: in ethanol, 293.15 K
Lab note: jot the number down without any unit.

      chemical_structure           measured_endpoint  test_result
0  Cc1ccc(S(N)(=O)=O)cc1  solubility (mole fraction)       0.0448

Now look at this one.
Request the reported solubility (mole fraction) associated with Cc1ccccc1S(N)(=O)=O
0.0293

* * *

conditions: in ethyl acetate, 313.15 K
As shown below, each of these molecules has a reported solubility (mole fraction) value.

>>> print(df.to_string())
    chemical_structure  test_result
0  Cc1ccccc1S(N)(=O)=O       0.0729

Kindly review the next molecule as well.
Give the measured solubility (mole fraction) of Cc1ccc(S(N)(=O)=O)cc1 .
0.123

* * *

conditions: in acetonitrile, 313.15 K
measured_endpoint: solubility (mole fraction)
Reply briefly: the number, and no unit.

    chemical_structure  test_result
0  Cc1ccccc1S(N)(=O)=O       0.0669

Lab note: next molecule to report on.
# lookup: solubility (mole fraction) of Cc1ccc(S(N)(=O)=O)cc1
0.143

* * *

details: in ethyl acetate, 288.15 K
measured_endpoint: solubility (mole fraction)
Number, no unit, nothing else.

>>> print(df.to_string())
      chemical_structure           measured_endpoint  test_result
0  Cc1ccc(S(N)(=O)=O)cc1  solubility (mole fraction)       0.0786

Could you share which solubility (mole fraction) value was measured for Cc1ccccc1S(N)(=O)=O ?
0.053

* * *

# solubility (mole fraction) per entry
details: in ethanol, 288.15 K
Please state the value as a number alone, without comment.

Recorded solubility (mole fraction) of Cc1ccccc1S(N)(=O)=O , please.
0.0266

What value of solubility (mole fraction) has been reported for the following compound? Cc1ccc(S(N)(=O)=O)cc1
0.0392

* * *

settings: in acetonitrile, 318.15 K
measured_endpoint: solubility (mole fraction)
A bare number is all that is needed in reply.

      chemical_structure  test_result
0  Cc1ccc(S(N)(=O)=O)cc1        0.159

Give the measured solubility (mole fraction) of Cc1ccccc1S(N)(=O)=O .
0.0737

* * *

details: in n-butanol, 283.15 K
measured_endpoint: solubility (mole fraction)
Note: the reply should be a number with no unit written.

      chemical_structure           measured_endpoint  test_result
0  Cc1ccc(S(N)(=O)=O)cc1  solubility (mole fraction)       0.0242

Consider the compound shown here: Cc1ccccc1S(N)(=O)=O What is its recorded solubility (mole fraction)?
0.0209

* * *

Listed below: solubility (mole fraction) values for each entry.
settings: in acetonitrile, 293.15 K

>>> df
    chemical_structure           measured_endpoint  test_result
0  Cc1ccccc1S(N)(=O)=O  solubility (mole fraction)       0.0423

From here, focus on the item given below.
Need solubility (mole fraction), item Cc1ccc(S(N)(=O)=O)cc1
0.0955

* * *

details: in n-propanol, 308.15 K
# solubility (mole fraction) values compiled below

>>> df
      chemical_structure           measured_endpoint  test_result
0  Cc1ccc(S(N)(=O)=O)cc1  solubility (mole fraction)       0.0542

Item Cc1ccccc1S(N)(=O)=O has what recorded solubility (mole fraction)?
0.0361

* * *

Below, each entry is listed alongside its reported solubility (mole fraction).
settings: in n-butanol, 318.15 K
In your answer, state the number alone without any accompanying words.

      chemical_structure           measured_endpoint  test_result
0  Cc1ccc(S(N)(=O)=O)cc1  solubility (mole fraction)       0.0565

Using the record for Cc1ccccc1S(N)(=O)=O , report its solubility (mole fraction).
0.0421

* * *

conditions: in isopropanol, 313.15 K
Recorded solubility (mole fraction) for the following compounds
Just the number.

>>> print(df.to_string())
    chemical_structure           measured_endpoint  test_result
0  Cc1ccccc1S(N)(=O)=O  solubility (mole fraction)       0.0374

Turning to the following compound.
Which solubility (mole fraction) value is on record for Cc1ccc(S(N)(=O)=O)cc1 ?
0.0445

* * *

conditions: in ethyl acetate, 318.15 K
// reported solubility (mole fraction) per item

>>> df
      chemical_structure  test_result
0  Cc1ccc(S(N)(=O)=O)cc1        0.133

Now for the molecule whose solubility (mole fraction) we want.
Consider the molecule shown here: Cc1ccccc1S(N)(=O)=O What is its recorded solubility (mole fraction)?
0.0775

* * *

// reported solubility (mole fraction) for each item listed
details: in methanol, 308.15 K
Please respond with just the number, no unit label.

In [3]: df
Out[3]:
      chemical_structure           measured_endpoint  test_result
0  Cc1ccc(S(N)(=O)=O)cc1  solubility (mole fraction)       0.0827

Please turn your attention to the following entry.
What measured solubility (mole fraction) goes with Cc1ccccc1S(N)(=O)=O ?
0.0473

* * *

Examples of molecules with documented solubility (mole fraction) follow.
conditions: in n-butanol, 308.15 K
Quick one: just the number, no unit, thanks!

>>> print(df.to_string())
      chemical_structure           measured_endpoint  test_result
0  Cc1ccc(S(N)(=O)=O)cc1  solubility (mole fraction)       0.0452

Field request: solubility (mole fraction) | item: Cc1ccccc1S(N)(=O)=O
0.0348

* * *

conditions: in isopropanol, 303.15 K
measured_endpoint: solubility (mole fraction)
// return a plain number; no unit text

    chemical_structure           measured_endpoint  test_result
0  Cc1ccccc1S(N)(=O)=O  solubility (mole fraction)       0.0305

Consider now this further molecule.
Need solubility (mole fraction) of Cc1ccc(S(N)(=O)=O)cc1 , thanks.
0.0347

* * *

Property: solubility (mole fraction); scope: individual compounds
conditions: in ethanol, 318.15 K
The answer should be a number; do not append a unit.

In [3]: df
Out[3]:
      chemical_structure           measured_endpoint  test_result
0  Cc1ccc(S(N)(=O)=O)cc1  solubility (mole fraction)       0.0914

Alright, here's another compound for you.
What value of solubility (mole fraction) has been recorded for this entry: Cc1ccccc1S(N)(=O)=O
0.0456

* * *

settings: in n-propanol, 318.15 K
Reported values of solubility (mole fraction) for individual entries

>>> print(df.to_string())
    chemical_structure  test_result
0  Cc1ccccc1S(N)(=O)=O       0.0427

Fill blank: measured solubility (mole fraction) of the compound Cc1ccc(S(N)(=O)=O)cc1 is ____.
0.0689

* * *

details: in ethanol, 308.15 K
measured_endpoint: solubility (mole fraction)
// no unit string in output, number only

>>> print(df.to_string())
    chemical_structure           measured_endpoint  test_result
0  Cc1ccccc1S(N)(=O)=O  solubility (mole fraction)       0.0384

For the next question, use this compound.
Recorded solubility (mole fraction) for Cc1ccc(S(N)(=O)=O)cc1 , please?
0.0701

* * *

conditions: in ethanol, 283.15 K
Listed here: items and their measured solubility (mole fraction).
Please respond with just the number, no unit label.

>>> df
      chemical_structure           measured_endpoint  test_result
0  Cc1ccc(S(N)(=O)=O)cc1  solubility (mole fraction)       0.0344

Could you now consider this next compound?
Given the entry Cc1ccccc1S(N)(=O)=O , report its measured solubility (mole fraction).
0.0242

* * *

details: in acetonitrile, 283.15 K
measured_endpoint: solubility (mole fraction)
Would you mind answering with just the numeric figure?

In [3]: df
Out[3]:
      chemical_structure  test_result
0  Cc1ccc(S(N)(=O)=O)cc1        0.078

// returns reported solubility (mole fraction) for input Cc1ccccc1S(N)(=O)=O
0.0337

* * *

settings: in n-propanol, 298.15 K
# solubility (mole fraction) per record follows
Lab note: record the figure alone, no unit after it.

In [3]: df
Out[3]:
      chemical_structure  test_result
0  Cc1ccc(S(N)(=O)=O)cc1       0.0415

Alright, here's another molecule for you.
Given the molecule Cc1ccccc1S(N)(=O)=O , what is its reported solubility (mole fraction)?
0.0301
